Test protocol: Cytotoxicity against human MRC5 cells assessed as reduction in cell viability incubated for 72 hrs by MTS assay
Type: toxicity, cell-based
Entries and their IC50 at 72 h values follow.

The cases that follow already have their IC50 at 72 h on record.
INSERT INTO assay_data (compound, recorded_endpoint, reading) VALUES
  ('CC1(C)CC[C@]23CC[C@]4(C)[C@H](CC[C@@H]5[C@@]6(C)Cc7cccnc7C(C)(C)[C@@H]6CC[C@]54C)[C@H]2[C@H]1OC3', 'IC50 at 72 h', '> 50 µM'),
  ('C=C(C)[C@@H]1CC[C@]2(C(=O)OCc3cn([C@H]4O[C@H](COC(C)=O)[C@@H](OC(C)=O)[C@H](OC(C)=O)[C@H]4OC(C)=O)nn3)CC[C@]3(C)[C@H](CC[C@@H]4[C@@]5(C)CC[C@H](O)C(C)(C)[C@@H]5CC[C@]43C)[C@@H]12', 'IC50 at 72 h', '> 50 µM'),
  ('C#CCOC(=O)[C@]12CC[C@@H](C(=C)C)[C@@H]1[C@H]1CC[C@@H]3[C@@]4(C)Cc5nccnc5C(C)(C)[C@@H]4CC[C@@]3(C)[C@]1(C)CC2', 'IC50 at 72 h', '> 50 µM'),
  ('C=C(C=O)[C@@H]1CC[C@]2(C(=O)OCc3cn([C@H]4O[C@H](COC(C)=O)[C@@H](OC(C)=O)[C@H](OC(C)=O)[C@H]4OC(C)=O)nn3)CC[C@]3(C)[C@H](CC[C@@H]4[C@@]5(C)Cc6nccnc6C(C)(C)[C@@H]5CC[C@]43C)[C@@H]12 (stereo in doubt)', 'IC50 at 72 h', '1.8 µM'),
  ('C[C@H]1[C@H](C)CC[C@]2(C(=O)O)CC[C@]3(C)C(=CC[C@@H]4[C@@]5(C)CCC(=O)C(C)(C)[C@@H]5CC[C@]43C)[C@H]12', 'IC50 at 72 h', '> 50 µM');

IC50 at 72 h reported for this compound C=C(C)[C@@H]1CC[C@]2(C(=O)OCc3oc(=O)oc3C)CC[C@]3(C)[C@H](CC[C@@H]4[C@@]5(C)CCC(=O)C(C)(C)[C@@H]5CC[C@]43C)[C@@H]12 : 47 µM

IC50 at 72 h reported for this compound CC1=CC[C@]2(C(=O)O)CC[C@]3(C)[C@H](CC[C@@H]4[C@@]5(C)CCC(=O)C(C)(C)[C@@H]5CC[C@]43C)[C@H]2[C@@H]1C : 33 µM

IC50 at 72 h reported for this compound C#CCOC(=O)[C@]12CC[C@@H](C(=C)C=O)[C@@H]1[C@H]1CC[C@@H]3[C@@]4(C)Cc5nccnc5C(C)(C)[C@@H]4CC[C@@]3(C)[C@]1(C)CC2 : 6.6 µM

IC50 at 72 h reported for this compound CC1(C)C=C2[C@H]3CC[C@@H]4[C@@]5(C)Cc6cccnc6C(C)(C)[C@@H]5CC[C@@]4(C)[C@]3(C)CC[C@@]2(C(=O)O)CC1 : > 50 µM

IC50 at 72 h reported for this compound C#CCOC(=O)[C@]12CC[C@@H](C(=C)C=O)[C@@H]1[C@H]1CC[C@@H]3[C@@]4(C)CC[C@H](O)C(C)(C)[C@@H]4CC[C@@]3(C)[C@]1(C)CC2 : 1.7 µM

IC50 at 72 h reported for this compound C=C(C)[C@@H]1CC[C@]2(C(=O)OCc3cn([C@H]4O[C@H](COC(C)=O)[C@@H](OC(C)=O)[C@H](OC(C)=O)[C@H]4OC(C)=O)nn3)CC[C@]3(C)[C@H](CC[C@@H]4[C@@]5(C)Cc6nccnc6C(C)(C)[C@@H]5CC[C@]43C)[C@@H]12 (stereo in doubt) : > 50 µM

====

Test protocol: Stability in human plasma assessed as compound remaining at 2 uM measured at 120 mins by RF-MS analysis
Assay type: ADME, cell-free
Condition parameters: read-out: Stability
Recorded endpoint: remaining at 2 h, 2 µM (%)
Respond numerically; units are % and should not be typed.

The cases that follow already have their remaining at 2 h, 2 µM on record.
INSERT INTO measurements (compound, recorded_endpoint, reading) VALUES
  ('C=C(C=O)[C@@H]1CC[C@]2(C(=O)OCc3cn([C@H]4O[C@H](COC(C)=O)[C@@H](OC(C)=O)[C@H](OC(C)=O)[C@H]4OC(C)=O)nn3)CC[C@]3(C)[C@H](CC[C@@H]4[C@@]5(C)CC[C@H](O)C(C)(C)[C@@H]5CC[C@]43C)[C@@H]12', 'remaining at 2 h, 2 µM', 82.3),
  ('C=C(C)[C@@H]1CC[C@]2(C(=O)OCc3cn([C@H]4O[C@H](COC(C)=O)[C@@H](OC(C)=O)[C@H](OC(C)=O)[C@H]4OC(C)=O)nn3)CC[C@]3(C)[C@H](CC[C@@H]4[C@@]5(C)CC[C@H](O)C(C)(C)[C@@H]5CC[C@]43C)[C@@H]12', 'remaining at 2 h, 2 µM', 83.4),
  ('C=C(C)[C@@H]1CC[C@]2(C(=O)OCc3cn([C@H]4O[C@H](COC(C)=O)[C@@H](OC(C)=O)[C@H](OC(C)=O)[C@H]4OC(C)=O)nn3)CC[C@]3(C)[C@H](CC[C@@H]4[C@@]5(C)Cc6nccnc6C(C)(C)[C@@H]5CC[C@]43C)[C@@H]12 (stereo in doubt)', 'remaining at 2 h, 2 µM', 87.1);

remaining at 2 h, 2 µM reported for this compound C=C(C=O)[C@@H]1CC[C@]2(C(=O)OCc3cn([C@H]4O[C@H](COC(C)=O)[C@@H](OC(C)=O)[C@H](OC(C)=O)[C@H]4OC(C)=O)nn3)CC[C@]3(C)[C@H](CC[C@@H]4[C@@]5(C)Cc6nccnc6C(C)(C)[C@@H]5CC[C@]43C)[C@@H]12 (stereo in doubt) : 88.5

====

Test protocol: Cytotoxicity against human HCT116-p53-null cells assessed as reduction in cell viability incubated for 72 hrs by MTS assay
Assay type: functional, cell-based
Entries and their IC50 values follow.
Respond numerically; units are µM and should not be typed.

The cases that follow already have their IC50 on record.
INSERT INTO measurements (compound, reading) VALUES
  ('Cc1oc(=O)oc1COC(=O)[C@]12CC[C@@H](C(C)C)[C@@H]1[C@H]1CC[C@@H]3[C@@]4(C)Cc5nccnc5C(C)(C)[C@@H]4CC[C@@]3(C)[C@]1(C)CC2', 44),
  ('CC1=CC[C@]2(C(=O)O)CC[C@]3(C)C(=CC[C@@H]4[C@@]5(C)Cc6cccnc6C(C)(C)[C@@H]5CC[C@]43C)[C@H]2[C@@H]1C', 34);

# ---- query compound ----
IC50 reported for this compound CC1=CC[C@]2(C(=O)O)CC[C@]3(C)[C@H](CC[C@@H]4[C@@]5(C)CCC(=O)C(C)(C)[C@@H]5CC[C@]43C)[C@H]2[C@@H]1C : 35

====

Test protocol: Stability in human plasma assessed as compound remaining at 2 uM measured at 60 mins by RF-MS analysis
Format: ADME, cell-free
Condition parameters: read-out: Stability
Recorded endpoint: remaining at 1 h, 2 µM (%)
Respond numerically; units are % and should not be typed.

INSERT INTO measurements (compound, reading) VALUES
  ('C=C(C=O)[C@@H]1CC[C@]2(C(=O)OCc3cn([C@H]4O[C@H](COC(C)=O)[C@@H](OC(C)=O)[C@H](OC(C)=O)[C@H]4OC(C)=O)nn3)CC[C@]3(C)[C@H](CC[C@@H]4[C@@]5(C)Cc6nccnc6C(C)(C)[C@@H]5CC[C@]43C)[C@@H]12 (stereo in doubt)', 88.7),
  ('C=C(C=O)[C@@H]1CC[C@]2(C(=O)OCc3cn([C@H]4O[C@H](COC(C)=O)[C@@H](OC(C)=O)[C@H](OC(C)=O)[C@H]4OC(C)=O)nn3)CC[C@]3(C)[C@H](CC[C@@H]4[C@@]5(C)CC[C@H](O)C(C)(C)[C@@H]5CC[C@]43C)[C@@H]12', 87),
  ('C=C(C)[C@@H]1CC[C@]2(C(=O)OCc3cn([C@H]4O[C@H](COC(C)=O)[C@@H](OC(C)=O)[C@H](OC(C)=O)[C@H]4OC(C)=O)nn3)CC[C@]3(C)[C@H](CC[C@@H]4[C@@]5(C)CC[C@H](O)C(C)(C)[C@@H]5CC[C@]43C)[C@@H]12', 87.8);

# ---- query compound ----
remaining at 1 h, 2 µM reported for this compound C=C(C)[C@@H]1CC[C@]2(C(=O)OCc3cn([C@H]4O[C@H](COC(C)=O)[C@@H](OC(C)=O)[C@H](OC(C)=O)[C@H]4OC(C)=O)nn3)CC[C@]3(C)[C@H](CC[C@@H]4[C@@]5(C)Cc6nccnc6C(C)(C)[C@@H]5CC[C@]43C)[C@@H]12 (stereo in doubt) : 88

All figures here come from ChEMBL document CHEMBL5352436.
